Molecular target: M5 muscarinic receptor (Homo sapiens, UniProt P08912)
Construct: expressed in transfected cells
Sequence (P08912 whole entry): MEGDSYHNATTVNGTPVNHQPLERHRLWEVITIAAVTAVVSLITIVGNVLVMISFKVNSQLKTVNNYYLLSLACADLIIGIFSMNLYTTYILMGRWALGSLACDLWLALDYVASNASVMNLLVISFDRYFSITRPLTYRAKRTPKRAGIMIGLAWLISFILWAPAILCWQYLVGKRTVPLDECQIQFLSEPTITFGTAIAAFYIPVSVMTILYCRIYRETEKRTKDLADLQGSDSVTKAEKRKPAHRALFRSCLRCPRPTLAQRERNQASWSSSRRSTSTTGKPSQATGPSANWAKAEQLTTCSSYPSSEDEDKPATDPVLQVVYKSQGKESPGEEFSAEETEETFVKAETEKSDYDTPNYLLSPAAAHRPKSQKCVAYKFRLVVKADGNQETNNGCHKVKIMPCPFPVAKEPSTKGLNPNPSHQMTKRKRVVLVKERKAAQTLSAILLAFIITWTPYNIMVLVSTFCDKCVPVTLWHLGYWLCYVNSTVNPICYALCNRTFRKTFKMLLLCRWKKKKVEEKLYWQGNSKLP
Test: Receptor Selection and Amplification (R-SAT) assay, cloned M5 receptor
Format: cell-based
Conditions: read-out: m5 % Efficacy
measured property: Emax (%)
Report the figure in % without appending any unit label.

Field: example entries. Status: answers known.
record smiles: CCCCC1CCN(CCCN2C(=O)CCc3cc(OC)ccc32)CC1
Emax (%): 37

record smiles: CCCCC1CCN(CCCN2C(=O)COc3ccc(C)cc32)CC1
Emax (%): 48

record smiles: CCCCC1CCN(CCCN2C(=O)COc3cc(F)ccc32)CC1
Emax (%): 50

Let us examine a further case.
## Input Emax for CCCCC1CCN(CCCN2CCOc3ccc(CC)cc32)CC1 ?
## Output 38

----------
Biological target: M2 muscarinic receptor (Homo sapiens)
Construct: expressed in transfected cells
Assay: Receptor Selection and Amplification (R-SAT) assay, cloned M2 receptor
Type: cell-based
Conditions: M2 pEC50, R-SAT, second table (COMPOUND ID series)
measured property: pEC50
Schema: pEC50 number; meaning minus log10 of the concentration expressed in molar units.

Field: example entries. Status: answers known.
compound: CCOCCC1CC2CCC(C1)N2CC(C)CN1C(=O)COc2ccccc21 (single isomer, unassigned) [Compound 00263201]
pEC50: 7.10
--
compound: COCCC1CC2CCC(C1)N2CC(C)CN1C(=O)COc2ccccc21 (stereo not shown)
pEC50: 6.80
--
compound: O=C1CCc2cc(F)c(F)cc2N1CCCN1[C@@H]2CC[C@H]1C[C@@H](OCC1CC1)C2
pEC50: 6.70

## Input pEC50 for CCON=C1CC2CCC(C1)N2C[C@@H](C)CN1C(=O)COc2ccccc21 (single isomer, unassigned) [Compound 00261434] ?
## Output 5.70

----------
Reported Emax values for the following compounds.
Target: M1 muscarinic receptor (Homo sapiens)
Construct: expressed in transfected cells
Sequence (P11229 1-460): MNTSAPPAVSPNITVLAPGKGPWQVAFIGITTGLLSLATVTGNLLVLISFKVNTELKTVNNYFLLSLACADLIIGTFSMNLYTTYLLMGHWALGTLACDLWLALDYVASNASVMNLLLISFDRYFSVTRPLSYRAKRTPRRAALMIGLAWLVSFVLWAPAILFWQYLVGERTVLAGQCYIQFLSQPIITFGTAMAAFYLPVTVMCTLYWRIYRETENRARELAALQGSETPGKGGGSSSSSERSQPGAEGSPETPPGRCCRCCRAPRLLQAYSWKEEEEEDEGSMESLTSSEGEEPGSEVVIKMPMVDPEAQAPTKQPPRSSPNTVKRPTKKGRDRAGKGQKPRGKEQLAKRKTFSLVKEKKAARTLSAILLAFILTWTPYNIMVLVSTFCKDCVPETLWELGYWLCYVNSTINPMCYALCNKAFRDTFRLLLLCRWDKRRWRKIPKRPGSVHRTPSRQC
Test: Receptor Selection and Amplification (R-SAT) assay, cloned M1 receptor
Assay type: cell-based
Conditions: read-out: m1 % Efficacy
Description: The EC50 for an agonist is intended to denote the concentration of a compound needed to achieve 50% of a maximal response seen in an in vitro assay such as R-SAT. For inverse agonists, EC50 is intended to denote the concentration of a compound needed to achieve 50% inhibition of an R-SAT response from basal, no compound, levels. […]
Report the figure in % without appending any unit label.

Field: example entries. Status: answers known.
compound: CCCCCC1CC2CCC(C1)N2C[C@@H](C)CN1C(=O)COc2ccccc21 (stereo partly shown) [Compound 108LM39-36]
measured property: Emax
reading: 106
--
compound: CCCCCC1CC2CC[C@@H](C1)N2C[C@@H](C)CN1C(=O)COc2cc(F)ccc21 (stereo partly shown) [Compound 112KK20-c5]
measured property: Emax
reading: 117

## Input Given the entry CCCCCC1CC2CCC(C1)N2C[C@@H](C)CN1C(=O)CCc2ccccc21 (stereo partly shown) [Compound 107LH55] , what Emax was observed with M1 muscarinic receptor (Homo sapiens)?
## Output 103

## Input Given the entry CCCC=C1CC2CCC(C1)N2CCCN1C(=O)COc2ccccc21 [Compound 81MF24] , what Emax was observed with M1 muscarinic receptor (Homo sapiens)?
## Output 96

----------
Target: M1 muscarinic receptor (Homo sapiens, UniProt P11229)
Construct: expressed in transfected cells
Assay: Receptor Selection and Amplification (R-SAT) assay, cloned M1 receptor
Type: cell-based
Conditions: M1 pEC50, R-SAT, second table (COMPOUND ID series)
measured property: pEC50
Schema: pEC50 number; meaning minus log10 of the concentration expressed in molar units.

compound: O=C1COc2cc(F)c(F)cc2N1CCCN1[C@@H]2CC[C@H]1C[C@@H](OCC1CC1)C2
pEC50: 8.20

compound: CCOCCC1CC2CCC(C1)N2CC(C)CN1C(=O)COc2ccccc21 (single isomer, unassigned) [Compound 00263201]
pEC50: 9.00

compound: O=C1COc2cc(F)ccc2N1CCCN1[C@@H]2CC[C@H]1C[C@@H](OCC1CC1)C2
pEC50: 7.90

compound: COCCC1CC2CCC(C1)N2CC(C)CN1C(=O)COc2ccccc21 (stereo not drawn)
pEC50: 8.50

compound: C[C@@H](CN1C(=O)COc2ccccc21)CN1[C@@H]2CC[C@H]1C[C@@H](OCC1CC1)C2
pEC50: 8.60

## Input pEC50 for CCOCCC1CC2CCC(C1)N2CC(C)CN1C(=O)COc2ccccc21 (single isomer, unassigned) [Compound 00262998] ?
## Output 8.10

## Input pEC50 for CCON=C1CC2CCC(C1)N2C[C@@H](C)CN1C(=O)COc2ccccc21 (single isomer, unassigned) [Compound 00261435] ?
## Output 8.40

## Input pEC50 for CCOCCC1CC2CCC(C1)N2CC(C)CN1C(=O)COc2ccccc21 (single isomer, unassigned) [Compound 00262993] ?
## Output 7.10

## Input pEC50 for O=C1CCc2cc(F)c(F)cc2N1CCCN1[C@@H]2CC[C@H]1C[C@@H](OCC1CC1)C2 ?
## Output 8.00

## Input pEC50 for CCOCC[C@@H]1C[C@H]2CC[C@@H](C1)N2C[C@H](C)CN1C(=O)COc2ccccc21 ?
## Output 6.80

## Input pEC50 for CC(CN1C(=O)COc2ccccc21)CN1[C@@H]2CC[C@H]1C[C@@H](OCC1CC1)C2 (mixture of isomers) ?
## Output 8.40

## Input pEC50 for CCON=C1CC2CCC(C1)N2C[C@@H](C)CN1C(=O)COc2ccccc21 (single isomer, unassigned) [Compound 00261434] ?
## Output 6.20

## Input pEC50 for O=C1CCc2cc(F)c(F)cc2N1CCCN1C2CCC1CC(=CCOCC1CC1)C2 ?
## Output 7.50

## Input pEC50 for COCC[C@H]1C[C@H]2CC[C@@H](C1)N2C[C@H](C)CN1C(=O)COc2ccccc21 ?
## Output 6.60

## Input pEC50 for CC(CN1C(=O)COc2ccccc21)CN1C2CCC1CC(=CCOCC1CC1)C2 (stereo not drawn) ?
## Output 7.90

----------
Target: M2 muscarinic receptor (Homo sapiens, UniProt P08172)
Construct: expressed in transfected cells
Sequence (P08172 1-466): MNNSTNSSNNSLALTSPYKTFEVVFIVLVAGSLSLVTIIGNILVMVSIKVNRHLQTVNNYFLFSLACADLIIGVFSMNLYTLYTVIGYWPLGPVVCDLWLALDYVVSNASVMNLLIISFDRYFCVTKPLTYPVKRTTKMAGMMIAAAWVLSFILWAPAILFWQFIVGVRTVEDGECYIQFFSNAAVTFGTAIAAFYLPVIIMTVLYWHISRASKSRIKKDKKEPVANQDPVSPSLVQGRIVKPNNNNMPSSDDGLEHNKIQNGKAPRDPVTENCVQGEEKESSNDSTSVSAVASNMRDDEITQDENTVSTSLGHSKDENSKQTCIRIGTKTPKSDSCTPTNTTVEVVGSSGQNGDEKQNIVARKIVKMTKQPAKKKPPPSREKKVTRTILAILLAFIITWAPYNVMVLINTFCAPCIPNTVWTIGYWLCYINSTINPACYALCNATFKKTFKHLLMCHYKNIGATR
Test: Receptor Selection and Amplification (R-SAT) assay, cloned M2 receptor
Type: cell-based
Conditions: M2 pEC50, R-SAT, second table (COMPOUND ID series)
Text: The EC50 for an agonist is intended to denote the concentration of a compound needed to achieve 50% of a maximal response seen in an in vitro assay such as R-SAT. For inverse agonists, EC50 is intended to denote the concentration of a compound needed to achieve 50% inhibition of an R-SAT response from basal, no compound, levels. […]
measured property: EC50 (nM)
Report the figure in nM without appending any unit label.

Field: example entries. Status: answers known.
compound: CC(CN1C(=O)COc2ccccc21)CN1[C@@H]2CC[C@H]1C[C@@H](OCC1CC1)C2 (mixture of isomers)
measured property: EC50
reading: 50.1
//
compound: O=C1COc2cc(F)ccc2N1CCCN1[C@@H]2CC[C@H]1C[C@@H](OCC1CC1)C2
measured property: EC50
reading: 39.8
//
compound: C[C@@H](CN1C(=O)COc2ccccc21)CN1[C@@H]2CC[C@H]1C[C@@H](OCC1CC1)C2
measured property: EC50
reading: 39.8

## Input EC50 for CCOCCC1CC2CCC(C1)N2CC(C)CN1C(=O)COc2ccccc21 (single isomer, unassigned) [Compound 00262998] ?
## Output 398

## Input EC50 for CCON=C1CC2CCC(C1)N2C[C@@H](C)CN1C(=O)COc2ccccc21 (single isomer, unassigned) [Compound 00261435] ?
## Output 79.4

## Input EC50 for O=C1COc2cc(F)c(F)cc2N1CCCN1[C@@H]2CC[C@H]1C[C@@H](OCC1CC1)C2 ?
## Output 50.1
